B1: glmS ribozyme (parent)
chain: AUAAAAGCGCCAGAACUACAGAAAUGUAGUUGACGAGGAGGAGGUUUAUCGAAUUUUCGGCGGAUGCCUCCAAA

Variants of: B1
Assay: self-cleavage kobs at 160 uM GlcN6P; higher = faster cleavage; RNA array
Conditions: with glucosamine-6-phosphate
Variants at the floor of the assay were thinned out.
observable: self-cleavage kobs at 160 uM GlcN6P

In the examples that follow, each entry is paired with its recorded self-cleavage kobs at 160 uM GlcN6P.
variantId | observedResult
G35C U47G U55G | < 1e-05 s⁻¹
A33U A36U | < 1e-05 s⁻¹
A12U U47A | 0.0041 s⁻¹

Retrieve self-cleavage kobs at 160 uM GlcN6P measured for C16A A64U and print it.
< 1e-05 s⁻¹

Retrieve self-cleavage kobs at 160 uM GlcN6P measured for U56G G63C and print it.
< 1e-05 s⁻¹

Retrieve self-cleavage kobs at 160 uM GlcN6P measured for G32A C71U and print it.
0.000159 s⁻¹
